read-out: Cytochrome P450 3A7 (Homo sapiens) (UniProt P24462); assay: LTEA_HepaRG_CYP3A7: Life Technologies and Expression Analysis (LTEA) Assay for CYP3A7 using HepaRG (AID 2283492); settings: mRNA level, 48 h; actives raise or lower the signal
Sequence (P24462 whole entry, looked up): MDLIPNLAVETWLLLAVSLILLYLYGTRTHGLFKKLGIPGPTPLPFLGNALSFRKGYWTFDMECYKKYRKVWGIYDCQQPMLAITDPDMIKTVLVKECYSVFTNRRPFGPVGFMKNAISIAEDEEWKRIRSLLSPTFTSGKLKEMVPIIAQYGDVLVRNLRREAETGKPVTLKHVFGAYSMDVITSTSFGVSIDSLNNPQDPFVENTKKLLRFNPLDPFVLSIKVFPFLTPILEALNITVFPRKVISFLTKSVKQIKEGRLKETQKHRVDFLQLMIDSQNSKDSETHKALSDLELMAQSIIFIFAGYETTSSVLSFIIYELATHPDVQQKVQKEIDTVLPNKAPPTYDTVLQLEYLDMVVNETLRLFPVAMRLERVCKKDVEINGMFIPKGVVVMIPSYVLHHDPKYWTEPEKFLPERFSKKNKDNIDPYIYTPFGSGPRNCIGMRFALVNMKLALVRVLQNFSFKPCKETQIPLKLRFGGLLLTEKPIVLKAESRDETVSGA
The source made the active and inactive calls. Rule for the calls: active = hit-call score of the fitted dose curve at least 0.9, where 1 is the maximum; inactive = score below 0.9.
Valid outcomes are listed here; reply with one: active, inactive

Problem: Short answer needed: outcome of this test for Cc1nc(-c2ccc3c(c2)CCN(CCC2CCC(NC(=O)/C=C/c4ccc(F)cc4)CC2)CC3)no1 (centres undefined) ?
Solution: inactive

Problem: Short answer needed: outcome of this test for CCCCN(CCCC)CCCC ?
Solution: inactive

Problem: Short answer needed: outcome of this test for CC(CO)OC(C)CO (centres undefined) (tested in a mixture with another compound) ?
Solution: inactive

Problem: Short answer needed: outcome of this test for CN1CCCC1=O ?
Solution: inactive

Problem: Short answer needed: outcome of this test for CCOC(=O)C(C)(C)Oc1ccc(Cl)cc1 ?
Solution: inactive

Problem: Short answer needed: outcome of this test for CCCCCCCCCCCC(=O)OC ?
Solution: inactive

Problem: Short answer needed: outcome of this test for NCCO ?
Solution: inactive
